# Test system: Antitargets
# PROCEDURE_TEXT: Fam108b inhibitors and proteome off-target selectivity – biochemical, gel-based ABPP, recombinant soluble Fam108b, HTS hits, complex proteome, late-stage follow-up (AID 588651);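 further: Fam108b spiked into mouse brain membrane proteome; tested at 20 µM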
# DETAILS: FP-rhodamine labeling in proteome
Active and inactive are the calls of the source. No stated cut-off is given here; in the data, active means inhibition above about 65%; inactive means the rest.
Outcome codes: active, inactive

- Cc1[nH]c2ccccc2c1C=NNC(=O)c1cccc(S(=O)(=O)Nc2cccc(C(F)(F)F)c2)c1: inactive
- COc1cccc2c1C(=O)c1c(O)c3c(c(O)c1C2=O)C[C@@](O)(C(=O)CO)C[C@@H]3O[C@H]1C[C@H](N)[C@H](O)[C@H](C)O1: inactive
- CCCCCCCCCCCCCCCC[n+]1ccc(C=NO)cc1: inactive
- CCOc1cc(/C=C2\C(=O)N(c3nc(-c4ccc(Br)cc4)cs3)N=C2c2ccccc2)ccc1O: active
- O=C1C(Cl)=C(N2CCC(C(=O)O)CC2)C(=O)c2ccccc21: inactive
- N=c1oc2cc(O)ccc2cc1C(=O)Nc1ccc(Br)cc1: inactive
- CC1=CC(=O)c2c(O)ccc(O)c2C1=O: inactive
- COc1ccc(-c2csc3nc(-c4ccccc4F)oc(=O)c23)cc1: inactive
- O=c1oc(-c2ccccc2Cl)nc2ccsc12: inactive
- Oc1ccc(C2Nc3cccc4cccc(c34)N2)c(O)c1: inactive

* * *

# Tested on: Antitargets
# PROCEDURE_TEXT: Fam108b inhibitors and proteome off-target selectivity – biochemical, gel-based ABPP, recombinant soluble Fam108b, HTS hits, complex proteome, late-stage follow-up (AID 588651);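 further: Fam108b spiked into mouse brain membrane proteome; tested at 20 µM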
# DETAILS: FP-rhodamine labeling in proteome
Calls of active or inactive are those of the source. Rule as the data show it: active = inhibition above about 65%; inactive = the rest.
Outcome codes: label 1 for active, label 0 for inactive

• O=C(NCC1CC1)c1ccc(Nc2nc3ccc(Br)cc3[nH]2)cc1 = label 0
• COc1ccc(NC(=S)Nc2ccc3nsnc3c2)cc1 = label 0
• Cc1cccc(N=Cc2nc(-c3ccccc3Br)oc2O)n1 = label 0
• CCNc1ccc2noc3c2c1C(=O)c1ccccc1-3 = label 0
• O=[N+]([O-])c1ccc(NN=Cc2c[nH]c3ccccc23)c(S(=O)(=O)Nc2ccc(Cl)cc2)c1 = label 0
• O=C(Nc1ccc(F)cc1)Nc1ccc(N2CCCC2)c(S(=O)(=O)Nc2ccccc2Cl)c1 = label 1
• COc1ccc2oc(=O)c(-c3csc(Nc4cccc(O)c4)n3)cc2c1 = label 0
• Cc1[nH]c2c(C)cccc2c1CCNC(=O)c1ccc2c(c1[N+](=O)[O-])C(=O)c1ccccc1C2=O = label 0
• Cc1cc(C)nc(SCc2ccc(C(=O)NN=Cc3cccc(O)c3O)cc2)n1 = label 1
• CCOC(=O)c1sc(NC(=O)Nc2ccc(Cl)cc2)cc1C = label 0
• Cc1ccc(S(=O)(=O)Nc2ccccc2C(=O)Nc2nc(-c3ccc(F)cc3)cs2)cc1 = label 0
• O=C(Nc1cccc(-c2csc(Nc3ccc(Cl)cc3)n2)c1)c1cc([N+](=O)[O-])cc(C(F)(F)F)c1 = label 0
• O=C(Nc1ccc(N2CCCC2)c(S(=O)(=O)Nc2cccc(C(F)(F)F)c2)c1)c1cccs1 = label 0
• O=C1NC(=S)/C(=C\c2ccc(-c3ccccc3Cl)o2)S1 = label 0
• CCc1ccc(S(=O)(=O)/N=C2\C=C(Nc3cccc(C(=O)O)c3)C(=O)c3ccccc32)cc1 = label 0
• Brc1ccc(-c2csc(Nc3nc(-c4ccc(Br)cc4)cs3)n2)cc1 = label 0
• O=C(NN=Cc1ccc(O)cc1)c1cccc(NN=Cc2ccc(O)cc2)c1 = label 1
• CCN(c1ccccc1)S(=O)(=O)c1ccc(NC(=O)c2nc(S(C)(=O)=O)ncc2Cl)cc1 = label 0
• O=C(Nc1ccc(-c2csc(Nc3ccc(Cl)cc3)n2)cc1)c1cccc(C(F)(F)F)c1 = label 1
• COc1cccc(-n2c(SCc3cc(=O)oc4cc(O)c(O)cc34)nc3ccccc3c2=O)c1 = label 0
